All values here come from patent US12479818B2.

Assay target: IRE1a (Homo sapiens)
Sequence (O75460 19-977): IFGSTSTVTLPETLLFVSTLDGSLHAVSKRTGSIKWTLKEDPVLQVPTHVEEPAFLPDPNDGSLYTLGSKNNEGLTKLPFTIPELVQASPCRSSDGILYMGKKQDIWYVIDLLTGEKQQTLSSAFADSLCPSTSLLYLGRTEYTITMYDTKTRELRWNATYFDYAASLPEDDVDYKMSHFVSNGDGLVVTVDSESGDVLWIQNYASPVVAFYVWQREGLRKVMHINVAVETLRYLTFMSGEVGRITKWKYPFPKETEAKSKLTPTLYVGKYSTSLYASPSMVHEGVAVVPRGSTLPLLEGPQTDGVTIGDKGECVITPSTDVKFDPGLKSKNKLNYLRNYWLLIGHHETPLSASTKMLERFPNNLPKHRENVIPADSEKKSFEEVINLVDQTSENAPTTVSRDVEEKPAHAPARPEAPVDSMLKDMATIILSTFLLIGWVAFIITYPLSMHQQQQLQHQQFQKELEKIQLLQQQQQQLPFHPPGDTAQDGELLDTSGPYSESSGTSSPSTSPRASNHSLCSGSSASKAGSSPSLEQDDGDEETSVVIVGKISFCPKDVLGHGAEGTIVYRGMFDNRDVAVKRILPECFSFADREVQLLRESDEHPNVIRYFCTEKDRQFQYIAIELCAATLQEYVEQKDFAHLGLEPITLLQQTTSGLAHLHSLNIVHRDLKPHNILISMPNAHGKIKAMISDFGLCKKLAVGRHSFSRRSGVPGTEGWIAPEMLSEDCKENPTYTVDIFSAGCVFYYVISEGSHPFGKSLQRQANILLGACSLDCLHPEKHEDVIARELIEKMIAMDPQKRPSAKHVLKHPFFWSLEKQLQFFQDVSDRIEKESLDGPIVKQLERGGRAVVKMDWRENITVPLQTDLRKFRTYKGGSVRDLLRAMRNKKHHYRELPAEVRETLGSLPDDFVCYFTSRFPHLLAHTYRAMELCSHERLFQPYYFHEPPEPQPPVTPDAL
Measurement notes: IRE1a Endoribonuclease Nanoluciferase Assay (XBP1 luciferase reporter in 293T cells)
Assay conditions: XBP1 nanoluciferase reporter in 293T cells, ER stressor; tested as the salt named
pEC50: −log10 of the molar value.

Compound: CCc1cc(-c2ccc(NS(=O)(=O)c3ccccc3Cl)cc2F)cc2cnc(N[C@H]3CC[C@H](N)CC3)nc12 [Compound 35]
pEC50: > 8.30

Compound: CCc1cc(-c2ccc(NS(=O)(=O)c3ccccc3Cl)c(F)c2)cc2cnc(N[C@@H]3CC[C@@H](N)C3)nc12 [Compound 78]
pEC50: > 8.30

Compound: CN[C@H]1CC[C@H](Nc2ncc3cc(-c4cc(F)c(NS(=O)(=O)c5ccccc5Cl)nc4OC)ccc3n2)CC1 [Compound 150]
pEC50: 7.30 to 8.30

Compound: CCc1cc(-c2cnc(NS(=O)(=O)c3ccccc3Cl)c(F)c2)cc2cnc(N[C@H]3CC[C@H](N(C)C)CC3)nc12 [Compound 95]
pEC50: > 8.30

Compound: CCc1cc(-c2ccc(NS(=O)(=O)c3ccccc3Cl)c(F)c2)cc2cnc(N[C@H]3CCCNC3)nc12 [Compound 73]
pEC50: > 8.30

Compound: CCc1c(F)c(-c2ccc(NS(=O)(=O)c3ccccc3Cl)nc2C)cc2cnc(N[C@H]3CC[C@H](N(C)C)CC3)nc12 [Compound 161]
pEC50: > 8.30

Compound: CCc1cc(-c2nnc(NS(=O)(=O)c3ccccc3Cl)cc2OC)cc2cnc(N[C@H]3CC[C@H](N(C)C)CC3)nc12 [Compound 159]
pEC50: 7.30 to 8.30

Compound: CCc1cc(-c2ccc(NS(=O)(=O)c3ccccc3Cl)c(F)c2)cc2cnc(N[C@@H]3CC[C@@H](N)[C@H](C)C3)nc12 [Compound 74]
pEC50: > 8.30

Compound: CCc1cc(-c2ccc(NS(=O)(=O)c3ccccc3Cl)nc2OC)cc2cnc(N[C@H]3CC[C@@H](N(C)C)CC3)nc12 [Compound 141]
pEC50: 5.00 to 7.00

Compound: CCc1cc(-c2ccc(NS(=O)(=O)c3ccccc3Cl)c(F)c2)cc2cnc(N[C@@H]3CC[C@H](N)C3)nc12 [Compound 79]
pEC50: 7.30 to 8.30

Compound: CCc1cc(-c2cc(F)c(NS(=O)(=O)c3ccccc3Cl)nc2OC)cc2cnc(N[C@H]3CC[C@H](N(C)C)CC3)nc12 [Compound 128]
pEC50: > 8.30

Compound: CCc1c(F)c(-c2cc(F)c(NS(=O)(=O)c3ccccc3Cl)nc2OC)cc2cnc(N[C@H]3CC[C@H](N(C)C)CC3)nc12 [Compound 163]
pEC50: > 8.30

Compound: NC12CCC(Nc3ncc4cc(-c5ccc(NS(=O)(=O)c6ccccc6Cl)c(F)c5)ccc4n3)(CC1)CC2 [Compound 81]
pEC50: > 8.30

Compound: N[C@H]1CC[C@H](Nc2ncc3cc(-c4ccc(NS(=O)(=O)c5ccccc5Cl)cc4)ccc3n2)CC1 [Compound 26]
pEC50: > 8.30
